Where these numbers come from: PubChem BioAssay AID720647

System: Drosophila bursicon receptor LGR2 (rickets)
assay protocol: inhibitors of bursicon-induced LGR2 CRE-luciferase signal, primary screen, cell-based, HEK293, CRE-luciferase reporter, bursicon stimulation (AID 720647);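 also: agonist challenge used bursicon conditioned medium at about half maximal strength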
condition parameters: bursicon-stimulated, 4 h, at 9.99 µM, active compounds read high
Hit rate of the full screen: of about 380,000 compounds, about 1,300 (0.34%) were called active. The sample as a whole holds a higher share of actives than the screen did.
quantity measured: inhibition (%)

{"chemical string": "Cc1cc(C)nc(NS(=O)(=O)c2ccc(N/C=C\\C(=O)c3cccs3)cc2)n1", "quantity measured": "inhibition", "recorded value": 0.601}
{"chemical string": "CCCC(=O)Nc1ccc2c(c1)C(=O)N(C)C[C@H](OC)[C@H](C)CN(C(=O)c1ccccn1)[C@H](C)CO2", "quantity measured": "inhibition", "recorded value": 14}
{"chemical string": "CCCC#Cc1cnc2c(c1)C(=O)N([C@H](C)CO)C[C@H](C)[C@@H](CN(C)S(=O)(=O)c1ccccc1)O2", "quantity measured": "inhibition", "recorded value": -10.8}
{"chemical string": "C[C@@H]1CN([C@H](C)CO)C(=O)Cc2cc(NS(C)(=O)=O)ccc2O[C@@H]1CN(C)C(=O)Nc1ccc2c(c1)OCO2", "quantity measured": "inhibition", "recorded value": -12.8}
